System: Nilaparvata lugens
Experiment: Pest control test of Nilaparvata lugens, soil irrigation treatment
Format: in vivo
Conditions: soil irrigation treatment, 0.01 mg/pot
Recorded % Mortality, Test Example 12 Nilaparvata lugens values for a group of compounds are listed next.
OBSERVATION TYPE: % Mortality, Test Example 12 Nilaparvata lugens (%)

| CHEMICAL STRUCTURE | READOUT UNIT | REPORTED MEASUREMENT |
| --- | --- | --- |
| Fc1ccc(Cn2ccccc2=NC(=S)C(F)(F)F)cn1 | % | 100 |
| FC(F)C(=S)N=c1ccccn1Cc1ccc(Cl)nc1 | % | 10 |
| Fc1cc(Cn2ccccc2=NC(=S)C(F)(F)F)cnc1Cl | % | 90 |
| FC(F)(F)C(=S)/N=c1\ccccn1Cc1ccc(Cl)nc1 | % | 85 |
| FC(F)(F)C(=S)N=c1ccccn1Cc1ccc(Br)nc1 | % | 96 |

All figures here come from patent US20150005347A1.
